- Assay explanation: Vehicle/excipient solubility screen
- Assay type: physicochemical
- Particulars: Labrasol, aqueous with cosolvent or surfactant or cyclodextrin; read-out: Solubility
Recorded metric: solubility (µg/mL)
Please respond with the number in µg/mL and leave the unit unwritten.

Ask | Returns the measured solubility for the input compound. Input: CCOc1ccc2cc(C3CC(c4ccc(I)cc4)=NN3C(=O)CCCC(=O)NCCCN3CCOCC3)c(Cl)nc2c1 (stereo not shown)
Reply | 1100

----------
- Assay explanation: Pharmacokinetics in mice (plasma, HPLC-MS/MS)
- Format: in vivo
- Particulars: mouse, plasma, iv, 2 mg/kg, IV, NMP vehicle, 2 mg/kg, mice; read-out: MRT 0-inf_obs
Recorded metric: MRT inf (h)
Please respond with the number in h and leave the unit unwritten.

Ask | Returns the measured MRT inf for the input molecule. Input: CCOc1ccc2cc(C3CC(c4ccc(I)cc4)=NN3C(=O)CCCC(=O)NCCCN3CCOCC3)c(Cl)nc2c1 (stereo not shown)
Reply | 1.35

----------
- Assay explanation: Vehicle/excipient solubility screen
- Assay type: physicochemical
- Particulars: polyethylene glycol 400, organic solvent or mixture; read-out: Solubility
- Procedure: With favorable potency, cellular activity, plasma stability, and a clear deficit in PK, we initiated a series of studies to assess and optimize a formulation of 329 for in vivo bioavailability. Here, 329 solubility was assessed in a series of additives, excipients, and co-solvents to identify initial favorable vehicles ( Table 2 ). […] A series of different formulations were assessed. […]
Recorded metric: solubility (µg/mL)
Please respond with the number in µg/mL and leave the unit unwritten.

Ask | Returns the measured solubility for the input molecule. Input: CCOc1ccc2cc(C3CC(c4ccc(I)cc4)=NN3C(=O)CCCC(=O)NCCCN3CCOCC3)c(Cl)nc2c1 (stereo not shown)
Reply | 1200

----------
- Assay explanation: Pharmacokinetics in mice (plasma, HPLC-MS/MS)
- Format: in vivo
- Particulars: mouse, plasma, ip, 200 mg/kg, NMP vehicle, mice
Recorded metric: Tmax (h)
Please respond with the number in h and leave the unit unwritten.

Ask | Returns the measured Tmax for the input compound. Input: CCOc1ccc2cc(C3CC(c4ccc(I)cc4)=NN3C(=O)CCCC(=O)NCCCN3CCOCC3)c(Cl)nc2c1 (stereo not shown) [compound 329]
Reply | 8

----------
- Assay explanation: Pharmacokinetics in mice (plasma, HPLC-MS/MS)
- Assay type: in vivo
- Particulars: mouse, plasma, intraperitoneal; IP at 20 mg/kg versus IV dosing; read-out: absolute bioavailability
Recorded metric: bioavailability (%)
Please respond with the number in % and leave the unit unwritten.

Ask | Returns the measured bioavailability for the input compound. Input: CCOc1ccc2cc(C3CC(c4ccc(I)cc4)=NN3C(=O)CCCC(=O)NCCCN3CCOCC3)c(Cl)nc2c1 (stereo not shown) [compound 329]
Reply | 84

----------
- Assay explanation: Pharmacokinetics in mice (plasma, HPLC-MS/MS)
- Assay type: in vivo
- Particulars: mouse, plasma, iv, 2 mg/kg, NMP vehicle, mice
Recorded metric: AUC(0-t) (ng·h/mL)
Please respond with the number in ng·h/mL and leave the unit unwritten.

Ask | Returns the measured AUC(0-t) for the input molecule. Input: CCOc1ccc2cc(C3CC(c4ccc(I)cc4)=NN3C(=O)CCCC(=O)NCCCN3CCOCC3)c(Cl)nc2c1 (stereo not shown)
Reply | 1400

----------
- Assay explanation: Pharmacokinetics in mice (plasma, HPLC-MS/MS)
- Format: in vivo
- Particulars: mouse, plasma, iv, 2 mg/kg, IV, NMP vehicle, 2 mg/kg, mice; read-out: Lambda_z (converted)
- Experimental: A method to quantify 329 from plasma has been developed using an internal standard, liquid–liquid extraction, and HPLC-MS/MS. Mouse plasma samples were prepared from treated mice at the indicated times frozen at -80°C until analysis. […] The solvent was evaporated to dryness, brought up in mobile phase analyzed by HPLC-MS/MS (ABSciex 4000). […] The lower limit of quantification is 0.1 ng/ml using 20 µl of plasma. […]
Recorded metric: k el (s⁻¹)
Please respond with the number in s⁻¹ and leave the unit unwritten.

Ask | Returns the measured k el for the input compound. Input: CCOc1ccc2cc(C3CC(c4ccc(I)cc4)=NN3C(=O)CCCC(=O)NCCCN3CCOCC3)c(Cl)nc2c1 (stereo not shown) [compound 329]
Reply | 5.83e-05

----------
- Assay explanation: Pharmacokinetics in mice (plasma, HPLC-MS/MS)
- Assay type: in vivo
- Particulars: mouse, plasma, ip, 20 mg/kg, IP, NMP vehicle, 20 mg/kg, mice; read-out: MRT 0-inf_obs
Recorded metric: MRT inf (h)
Please respond with the number in h and leave the unit unwritten.

Ask | Returns the measured MRT inf for the input compound. Input: CCOc1ccc2cc(C3CC(c4ccc(I)cc4)=NN3C(=O)CCCC(=O)NCCCN3CCOCC3)c(Cl)nc2c1 (stereo not shown) [compound 329]
Reply | 5.98

----------
- Assay explanation: Vehicle/excipient solubility screen
- Format: physicochemical
- Particulars: propylene glycol, organic solvent or mixture; read-out: Solubility
- Protocol: With favorable potency, cellular activity, plasma stability, and a clear deficit in PK, we initiated a series of studies to assess and optimize a formulation of 329 for in vivo bioavailability. Here, 329 solubility was assessed in a series of additives, excipients, and co-solvents to identify initial favorable vehicles ( Table 2 ). […] A series of different formulations were assessed. […]
Recorded metric: solubility (µg/mL)
Please respond with the number in µg/mL and leave the unit unwritten.

Ask | Returns the measured solubility for the input molecule. Input: CCOc1ccc2cc(C3CC(c4ccc(I)cc4)=NN3C(=O)CCCC(=O)NCCCN3CCOCC3)c(Cl)nc2c1 (stereo not shown)
Reply | 1300

----------
- Assay explanation: Pharmacokinetics in mice (plasma, HPLC-MS/MS)
- Format: in vivo
- Particulars: mouse, plasma, ip, 20 mg/kg, NMP vehicle, mice
Recorded metric: Tmax (h)
Please respond with the number in h and leave the unit unwritten.

Ask | Returns the measured Tmax for the input molecule. Input: CCOc1ccc2cc(C3CC(c4ccc(I)cc4)=NN3C(=O)CCCC(=O)NCCCN3CCOCC3)c(Cl)nc2c1 (stereo not shown)
Reply | 2

----------
- Assay explanation: Vehicle/excipient solubility screen
- Assay type: physicochemical
- Particulars: aqueous buffer; 50 mM sodium acetate pH 4; read-out: Solubility
Recorded metric: solubility

Ask | Returns the measured solubility for the input compound. Input: CCOc1ccc2cc(C3CC(c4ccc(I)cc4)=NN3C(=O)CCCC(=O)NCCCN3CCOCC3)c(Cl)nc2c1 (stereo not shown)
Reply | < 1000 µg/mL

----------
- Assay explanation: Pharmacokinetics in mice (plasma, HPLC-MS/MS)
- Assay type: in vivo
- Particulars: mouse, plasma, ip, 200 mg/kg, IP, new formulation, 200 mg/kg; read-out: half-life (converted)
Recorded metric: half-life (h)
Please respond with the number in h and leave the unit unwritten.

Ask | Returns the measured half-life for the input compound. Input: CCOc1ccc2cc(C3CC(c4ccc(I)cc4)=NN3C(=O)CCCC(=O)NCCCN3CCOCC3)c(Cl)nc2c1 (stereo not shown) [compound 329]
Reply | 9

----------
- Assay explanation: Intrinsic clearance and half-life in rat microsomes
- Type: in vitro ADME
- Particulars: rat, microsomes, rat microsomes; read-out: rate of clearance
Recorded metric: microsomal CLint

Ask | Returns the measured microsomal CLint for the input compound. Input: CCOc1ccc2cc(C3CC(c4ccc(I)cc4)=NN3C(=O)CCCC(=O)NCCCN3CCOCC3)c(Cl)nc2c1 (stereo not shown)
Reply | ~64 µL/min/mg

----------
- Assay explanation: Pharmacokinetics in mice (plasma, HPLC-MS/MS)
- Type: in vivo
- Particulars: mouse, plasma, ip, 200 mg/kg, IP, NMP vehicle, 200 mg/kg, mice; read-out: MRT 0-inf_obs
Recorded metric: MRT inf (h)
Please respond with the number in h and leave the unit unwritten.

Ask | Returns the measured MRT inf for the input compound. Input: CCOc1ccc2cc(C3CC(c4ccc(I)cc4)=NN3C(=O)CCCC(=O)NCCCN3CCOCC3)c(Cl)nc2c1 (stereo not shown)
Reply | 14.7

----------
- Assay explanation: Pharmacokinetics in mice (plasma, HPLC-MS/MS)
- Format: in vivo
- Particulars: mouse, plasma, iv, 2 mg/kg, IV, NMP vehicle, 2 mg/kg, mice; read-out: AUC 0-inf_obs
Recorded metric: AUC(0-inf) (ng·h/mL)
Please respond with the number in ng·h/mL and leave the unit unwritten.

Ask | Returns the measured AUC(0-inf) for the input compound. Input: CCOc1ccc2cc(C3CC(c4ccc(I)cc4)=NN3C(=O)CCCC(=O)NCCCN3CCOCC3)c(Cl)nc2c1 (stereo not shown)
Reply | 1410

----------
- Assay explanation: Pharmacokinetics in mice (plasma, HPLC-MS/MS)
- Type: in vivo
- Particulars: mouse, plasma, ip, 200 mg/kg, IP, NMP vehicle, 200 mg/kg, mice; read-out: t1/2 (converted)
Recorded metric: half-life (h)
Please respond with the number in h and leave the unit unwritten.

Ask | Returns the measured half-life for the input compound. Input: CCOc1ccc2cc(C3CC(c4ccc(I)cc4)=NN3C(=O)CCCC(=O)NCCCN3CCOCC3)c(Cl)nc2c1 (stereo not shown) [compound 329]
Reply | 9.31
